Test system: HOP-92
Assay: NCI tumour cell line growth inhibition, 48 h
Active and inactive are the calls of the source. Rule as the data show it: active = GI50 up to about 1.1 µM and inactive = higher.
Give one outcome, nothing more. List: active, inactive

Recorded results for 2 compounds are shown here.
{"Compound": "N#CC1CCCCCCCCCCC(=O)N(CCCl)C1=O (stereo unspecified)", "System name": "HOP-92", "Qualitative label": "inactive"}
{"Compound": "Nc1ncc(Sc2ccccc2C(=O)O)s1", "System name": "HOP-92", "Qualitative label": "inactive"}

*Q* Record lookup: outcome of this test for COc1cc2c(c(OC)c1OC)-c1ccc(SC)c(=O)cc1[C@@H](NCc1ccc([N+](=O)[O-])cc1)CC2 ?
*A* active

*Q* Assay outcome for COc1ccc(C(=O)/C=C/c2ccc(OCC(=O)N3CCN(c4ccccc4)CC3)cc2)cc1 : what was it?
*A* inactive

*Q* Check the results log: what was the call for Cc1cc2c(C)nn(Cc3ccccc3Cl)c2c(C#N)c1C ?
*A* inactive
